Tested on: FMAL-actin plus TMR-cC0-C2
assayName: Selleck library HTS, 473 nm excitation (FLT of FMAL-actin with TMR-cC0-C2, FLT-FRET)
Type: binding, human
assayConditions: initial screen, 30 μM compound
Please use Criterion met for 473-nm Δτ, Repeat 1 under 0.07 ns and Criterion not met for everything else, ties included.

Illustrative cases are given below, each with its answer.
1) O=C(c1ccc(OCCN2CCCCC2)cc1)c1c(-c2ccc(O)cc2)sc2cc(O)ccc12 :: Criterion met
2) NC(=O)c1cc[n+](CC2=C(C(=O)O)N3C(=O)[C@@H](NC(=O)[C@@H](c4ccccc4)S(=O)(=O)[O-])[C@H]3SC2)cc1 [Cefsulodin sodium] :: Criterion not met
3) Clc1ccc(C(Cn2ccnc2)OCc2ccc(Sc3ccccc3)cc2)c(Cl)c1 (centres unmarked) [Fenticonazole nitrate] :: Criterion met
4) O=C(Nc1ccc(Cl)cc1)Nc1ccc(Cl)c(Cl)c1 :: Criterion met
5) CCC(=O)c1c(O)cc(O)cc1O :: Criterion met

Request: Quick check: does "CC1(C)CC[C@]2(C(=O)O)CC[C@]3(C)C(=CC[C@@H]4[C@@]5(C)CC[C@H](O)[C@@](C)(CO)[C@@H]5CC[C@]43C)[C@@H]2C1" have 473-nm Δτ, Repeat 1 under 0.07 ns?
Result: Criterion not met

Request: Okay, and CCOC(=O)[C@@H](N)Cc1ccc(-c2cc(O[C@H](c3ccc(Cl)cc3-n3ccc(C)n3)C(F)(F)F)nc(N)n2)cc1 [Telotristat etiprate (LX 1606 Hippurate), Telotristat etiprate] ?
Result: Criterion met

Request: Okay, and "CONC(=O)Nc1ccc(-c2sc3c(c2CN(C)C)c(=O)n(-c2ccc(OC)nn2)c(=O)n3Cc2c(F)cccc2F)cc1" ?
Result: Criterion not met

Request: Okay, and "COC(=O)N[C@H](C(=O)N1CCC[C@H]1c1nc(-c2ccc3c(c2)O[C@@H](c2ccccc2)n2c-3cc3cc(-c4c[nH]c([C@@H]5CCCN5C(=O)[C@@H](NC(=O)OC)C(C)C)n4)ccc32)c[nH]1)C(C)C" ?
Result: Criterion not met

Request: Okay, and "CNC(=O)c1cc(Oc2ccc(NC(=O)Nc3ccc(Cl)c(C(F)(F)F)c3)c(F)c2)ccn1" ?
Result: Criterion met

* * *

System: TMR-cC0-C2 (C0-C2 fragment of human cMyBP-C)
assayName: FLT-TMR concentration-response assay (FLT of TMR on cC0-C2, no actin)
Format: binding
assayConditions: 60 μM compound
Structures can show the parent of a compound that is named as a salt. *1 amine or outer side, *2 acyl side, *3 side chain or, on linkers, in order; H or OH if unused. Where a SMILES comes first, the peptide text is derived from it. Bridges are numbered along the chain shown (N, C = ends). [ ]: non-standard residue; d: D form. The star is where a group is joined. Orn(4R-OH,5R-OH) = O=C([C@H](C[C@@H](O)[C@@H](O)N[*:3])N[*:1])[*:2]; Tetradecanoyl(10R,12S-Me2) = CC[C@H](C)C[C@H](C)CCCCCCCCC(=O)*; hTyr(3S-OH,4S-OH) = N[C@H](C(=O)O)[C@H](O)[C@@H](O)c1ccc(O)cc1; Gln(3R-OH) = NC(=O)C[C@@H](O)[C@H](N)C(=O)O; Pro(3S-OH) = O=C(O)[C@H]1NCC[C@@H]1O; Hyp = O=C(O)[C@@H]1C[C@@H](O)CN1
Would you mind telling me the reported cC0-C2/cC0-C2#P (ratio of FLT changes) of each entry?
Give bare numbers.

Sample answers from the record:
1. C#Cc1cccc(Nc2ncnc3cc(OCCOC)c(OCCOC)cc23)c1 [Erlotinib] :: 1.0
2. Cc1cnc(C(=O)N[C@H]2CCCCC/C=C\[C@@H]3C[C@@]3(C(=O)NS(=O)(=O)C3CC3)NC(=O)[C@@H]3C[C@@H](Oc4nc5ccccc5c5ccccc45)CN3C2=O)cn1 :: 1.2
3. C[C@@H]1O[C@@H](OC[C@H]2O[C@@H](Oc3c(-c4ccc(OCCO)c(OCCO)c4)oc4cc(OCCO)cc(O)c4c3=O)[C@H](O)[C@@H](O)[C@@H]2O)[C@H](O)[C@H](O)[C@H]1O :: 0.8
4. C#Cc1cccc(Nc2ncnc3cc(OCCOC)c(OCCOC)cc23)c1 [Erlotinib HCl] :: 0.8
5. O=C(Nc1ccc(Cl)cc1)Nc1ccc(Cl)c(Cl)c1 :: 0.6
6. CCC(=O)O[C@H]1[C@H](O[C@@H]2[C@@H](C)[C@H](O[C@H]3C[C@@](C)(OC)[C@@H](O)[C@H](C)O3)[C@@H](C)C(=O)O[C@H](CC)[C@@](C)(O)[C@H](O)[C@@H](C)C(=O)[C@H](C)C[C@@]2(C)O)O[C@H](C)C[C@@H]1N(C)C [Erythromycin estolate] :: 5.9
7. CC1(C)CCC(C)(C)c2cc(NC(=O)c3ccc(C(=O)O)cc3)ccc21 :: 0.7
8. CC1(C)CC[C@]2(C(=O)O)CC[C@]3(C)C(=CC[C@@H]4[C@@]5(C)CC[C@H](O)[C@@](C)(CO)[C@@H]5CC[C@]43C)[C@@H]2C1 :: 0.7

Please report cC0-C2/cC0-C2#P (ratio of FLT changes) for every entry that follows.
1. Clc1ccc(C(Cn2ccnc2)OCc2ccc(Sc3ccccc3)cc2)c(Cl)c1 (centres unmarked) [Fenticonazole nitrate]
2. C[C@@H]1O[C@@H](O[C@H]2[C@H](O[C@H]3CC[C@@]4(C)[C@@H](CC[C@]5(C)[C@@H]4CC=C4[C@@H]6CC(C)(C)CC[C@]6(C(=O)O)CC[C@]45C)[C@]3(C)CO)OC[C@H](O)[C@@H]2O)[C@H](O)[C@H](O)[C@H]1O
3. CCc1c(Cl)c(O)c(Cl)c(O)c1C(=O)O[C@H]1[C@H](O)[C@H](OC)[C@H](OC/C2=C\C=C\C[C@H](O)/C(C)=C/[C@H](CC)[C@@H](O[C@@H]3OC(C)(C)[C@@H](OC(=O)C(C)C)[C@H](O)[C@@H]3O)/C(C)=C/C(C)=C/C[C@@H]([C@@H](C)O)OC2=O)O[C@@H]1C
4. C[C@H]1O[C@@H](O[C@H]2CC[C@@]3(C)[C@@H](CC[C@]4(C)[C@@H]3C=C[C@]35OC[C@@]6(CCC(C)(C)C[C@H]63)[C@H](O)C[C@]54C)[C@]2(C)CO)[C@H](O)[C@@H](O[C@@H]2O[C@H](CO)[C@@H](O)[C@H](O)[C@H]2O)[C@H]1O
5. Cc1cn(-c2cc(NC(=O)c3ccc(C)c(Nc4nccc(-c5cccnc5)n4)c3)cc(C(F)(F)F)c2)cn1.Cl [Nilotinib hydrochloride]

Result:
1: 0.8; 2: 0.9; 3: 10.4; 4: 0.9; 5: 0.7

Please report cC0-C2/cC0-C2#P (ratio of FLT changes) for every entry that follows.
1. NC(=O)c1cc[n+](CC2=C(C(=O)O)N3C(=O)[C@@H](NC(=O)[C@@H](c4ccccc4)S(=O)(=O)[O-])[C@H]3SC2)cc1 [Cefsulodin sodium]
2. O=C(O)[C@H]1O[C@@H](Oc2cc3oc(-c4ccc(O)cc4)cc(=O)c3c(O)c2O)[C@H](O)[C@@H](O)[C@@H]1O
3. COc1nc2ccc(Br)cc2cc1[C@@H](c1ccccc1)[C@@](O)(CCN(C)C)c1cccc2ccccc12.O=C(O)/C=C/C(=O)O [Bedaquiline fumarate]
4. CC[C@H](C)C[C@H](C)CCCCCCCCC(=O)N[C@H]1C[C@@H](O)[C@@H](O)NC(=O)[C@@H]2[C@@H](O)CCN2C(=O)[C@H]([C@H](O)CC(N)=O)NC(=O)[C@H]([C@H](O)[C@@H](O)c2ccc(O)cc2)NC(=O)[C@@H]2C[C@@H](O)CN2C(=O)[C@H]([C@@H](C)O)NC1=O [Pneumocandin B0] ({Tetradecanoyl(10R,12S-Me2)}-[Orn(4R-OH,5R-OH)]T[Hyp][hTyr(3S-OH,4S-OH)][Gln(3R-OH)][Pro(3S-OH)]; lactam 1-C)

Result:
[1.1, 1.0, 0.7, 0.9]
